src = patent US20190233542A1

systemTested: T1, human PCSK9 (Proprotein Convertase Subtilisin/Kexin type 9) (human, UniProt Q8NBP7 31-692, biotin label in the ELISA formats (site not stated))
T1 construct: 85 kDa was used as the analyte's mass in SPR; also called PCSK9 (WT); wild type PCSK9
assayMethodText: SPR, Biacore T200, antibody captured, PCSK9 as analyte
observable: pKd
Give bare numbers, as −log10 of the molar value.

binder	pKd
15.14.2-uAb-IgG4L (antibody, V domains shown, human IgG4 constant region, lambda light chain) VH: EVQMLESGGGLVQPGGSLRLSCAVSGFTFSRFAMSWVRQAPGKGLDWVSSISDNAGRTYFADSVKGRFTISRDNSKNTLYLQMNSLRADDTAVYYCAKLSNWGPYGMDVWGQGTTVTVSS VL: QSALTQPPSASGSPGQSVTISCTGTSSDVGYYNYVSWYQQHPGEAPKLMIYEVNKRPSGVPDRFSGSKSGSTASLTVSGLQAVDEADYYCSSYAGSKNFVVFGGGTKLTVL	9.60

Record pKd for all entries; do not skip any.
1. 17.72.3-uAb2-IgG4K (antibody, V domains shown, human IgG4 constant region, kappa light chain) VH: QVQLQESGPGLVKPSGTLSLTCAVSGGSIRSYNWWSWVRQPPGEGLEWIGEIHHSGTTNYNPSLKSRVTISVDKSKNQFSLKLSSVTAADTAVYYCARDYSGSYFDYWGQGTLVTVSS VL: EVVLTQSPATLSLSPGERATLSCRTSQSLSSYVAWSQQKPGQAPRLLIYDASKRATGVPARFSGSGSGTDFTLTISNLEPEDFAVYYCHQRGNWMSSFGQGTKLEIK
2. 19.3.8-uAb1-IgG4L (antibody, V domains shown, human IgG4 constant region, lambda light chain) VH: QVQLVQSGAEVKKPGASVKVSCKASGYTFTGYYINWVRQAPGQGLEWMGRINPNSGGTNYAQKFQGRVTMTRDTSINTAYMELSRLRSDDTAVYFCASWEGTVTTWDFYYYYGMDVWGQGTTVTVSS VL: QSALTQPASVSGSPGQSITISCTGTSSDVDTYNYVSWYQHHPGKAPKLIIFDVSNRPSGVSNRFSGSKSGNTASLTISGLQAEDEADYYCSSYTSSSTLVVFGGGTKLTVL
3. 40409 (hIgG4) (antibody, V domains shown, human IgG4 constant region) VH: QLNLQQSGPGLVNPSQTLSLTCAISGGSVSSNSAAWNWIRQSPSRGLEWLGRIYSRSKWYHDYAVSVKGRITINPDTSKNQFFLQLNSVTPEDTAVYYCARDWETIIWGDDGPNYYNYGLDVWGQGTTVTVSS VL: DIQMTQSPSSLSASVGDRVTITCRASQGIRNDLGWYQQKPGKAPKRLIYGASSLQSGVPSRFSGSGSGTEFTLTISSLQPEDFATYYCLQHNNYLWTFGQGTKVEIK

# output
[8.47, 7.76, 10.28]
